Tested on: MS2 coat protein
Assay Method Text: apparent Kd, MS2 coat protein; higher = weaker binding; RNA-MaP array; tryptophan 2.4 mM where present
Cond: designed as: OFF switch for tryptophan; no ligand
# maps each entry to its apparent Kd
Express the result in nM but write the number alone.

These recorded examples may help you get a feel for the data.
CCUAUGCAGUCGGCCGCCACUGAUAACGUUAUCGUUACCUCAGAAACAUGAGGAUCACCCAUGUACAGGACCGGGACUGUAUAGG    12.8
AACUUCGCAUAGGAAAACUAUGUGAAGAAUCGAGGACCGGUACGGCCGCCACUCGUCCUCAACAUGAGGAUCACCCAUGUAAUAA    18.9
ACCUGCGUUUGAUUCUAUCAGACGCAGGUUCGAGGACCGGUACGGCCGCCACUCGGACAUGAGGAUCACCCAUGUUUGACAUGGG    64.5
ACAUGAGGAUCACCCAUGUGAAGCAGGGUACGAGGACCGGUACGGCCGCCACUCGAACAUUAUAACGAGUGAAUGGCAACGAUGU    11.9
UUCAGCUAGUCGGCCGCCACUACAUGAGGAUCACCCAUGUCGGUCCUCACUGCUUCGGCAGUGUGUAGGACCGGGACUAGCUGAG    72.3

q: Which apparent Kd value belongs to AGAUUCGACACGGCCGCCACUCGUGACGGAUUUCCGAGUGUCGAACAUGAGGAUCACCCAUGUACGAGGACCGGGUGUUGAGUCU ?
a: 74.7

q: Another: AACAUGAGGAUCACCCAUGUGUCCUCGAAACGAGGACCGGUACGGCCGCCACUCGACGUAUGUUGACGAAAAGUCAGCAUACGAA
a: 281

q: Another: AUAAAUAAUAAAUAAAAUAAAAUGGGUGAACGAGGACCGGUACGGCCGCCACUCGGACAUGAGGAUCACCCAUGUCCAUGUGAAA
a: 19.5
